Could you please report measured Bliss excess for the items listed next?
# Test system: NCI-H520 (Squamous Cell Lung Carcinoma);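 also: after 72 h of two-drug dosing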
# Assay Overview: Bliss excess, mean over the matrix (fraction); higher = more synergy
Give bare numbers.

>>> recorded_value("NC1(C(=O)N[C@@H](CCO)c2ccc(Cl)cc2)CCN(c2ncnc3[nH]ccc23)CC1 [Capivasertib] + CC(=O)c1c(C)c2cnc(Nc3ccc(N4CCNCC4)cn3)nc2n(C2CCCC2)c1=O [Palbociclib] (first compound max 10 µM, 7x7, partner max 10 µM)")
0.0018
>>> recorded_value("NC1(C(=O)N[C@@H](CCO)c2ccc(Cl)cc2)CCN(c2ncnc3[nH]ccc23)CC1 [Capivasertib] + C[C@@H]1COCCN1C2=NC(=NC(=C2)C3(CC3)[S@](=N)(=O)C)C4=C5C=CNC5=NC=C4 [AZD6738] (first compound max 10 µM, 7x7, partner max 10 µM)")
-0.0357

In plain terms, CN(CCO)CC[C@H](CSc1ccccc1)Nc1ccc(S(=O)(=O)NC(=O)c2ccc(N3CCC([C@@H](O)c4ccccc4-c4ccc(Cl)cc4)CC3)cc2)cc1S(=O)(=O)C(F)(F)F [AZD4320] + Cc1cc2ncnn2cc1Nc1ncc2c(n1)n(C1CCOCC1)c(=O)n2C [AZD7648] (first compound max 1 µM, 7x7, partner max 10 µM) has a documented Bliss excess of -0.0691

Hey, just so you know, these numbers are from the supplement of paper PMC11061612.
